- subject.of.test: human BACE1 (Homo sapiens, UniProt P56817)
- Sequence (P56817 46-501): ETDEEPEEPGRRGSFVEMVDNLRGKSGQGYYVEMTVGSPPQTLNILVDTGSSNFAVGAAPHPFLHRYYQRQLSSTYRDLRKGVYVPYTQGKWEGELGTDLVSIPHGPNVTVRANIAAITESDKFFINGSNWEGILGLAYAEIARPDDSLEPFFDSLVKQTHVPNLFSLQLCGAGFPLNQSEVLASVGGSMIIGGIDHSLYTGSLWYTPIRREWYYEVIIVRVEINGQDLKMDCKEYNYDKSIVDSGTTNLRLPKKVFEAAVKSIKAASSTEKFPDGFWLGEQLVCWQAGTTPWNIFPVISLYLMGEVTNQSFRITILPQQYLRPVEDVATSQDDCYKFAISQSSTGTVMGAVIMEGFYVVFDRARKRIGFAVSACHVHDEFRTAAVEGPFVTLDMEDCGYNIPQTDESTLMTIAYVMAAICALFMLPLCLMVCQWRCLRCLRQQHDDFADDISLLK
- test.method.notes: Fluorescent kinetic assay, human BACE1 (FRET peptide substrate WABC-6);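 note: fluorescence monitored at excitation 320 nm and emission 420 nm over 30 min, with the substrate cleavage rate taken as the linear slope of the signal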
- Format: biochemical
- condition.description: fluorescent kinetic assay, 25 μM substrate WABC-6, pH 4.5, room temperature; read-out: IC50 (μM) BACE 1
Listed compounds paired with reported IC50

CCCCc1ccc(-c2ccc(-c3ccccc3)n2CC(=O)N=C(N)NCCCO)cc1    0.11 to 1 µM
N#CCCCNC(=N)NC(=O)Cn1c(-c2ccccc2)ccc1C1CCCCC1    1.1 to 5 µM

Note to self: IC50 recorded for NC(=NC(=O)Cn1c(-c2ccccc2)ccc1C12CC3CC(CC(C3)C1)C2)NC1CCCCCC1 was 0.11 to 1 µM

Note to self: IC50 recorded for CCC(C)NC(=O)c1ccc(-c2ccc(-c3ccccc3)n2CC(=O)N=C(N)NCCCO)cc1 (stereo not shown) was 0.11 to 1 µM

Note to self: IC50 recorded for CCCc1ccc(-c2ccc(-c3ccccc3)n2CC(=O)N=C(N)NCc2ccc(F)c(F)c2F)cc1 was 0.11 to 1 µM

Note to self: IC50 recorded for C=CCN(C)C(=O)c1ccc(-c2ccc(-c3ccccc3)n2CC(=O)N=C(N)NCCCO)cc1 was 0.11 to 1 µM

Source of measurements: patent US7488832B2
